conditions: 353.15 K; 101.33 kPa; Liquid
measurement-kind: viscosity (mPa·s)

A = N#CCCn1cc[n+](Cc2ccccc2)c1.[Cl-] [1-(2-cyanoethyl)-3-(phenylmethyl)-1H-imidazolium chloride]
B = CCCC[n+]1ccn(CCC#N)c1.[Cl-] [3-butyl-1-(2-cyanoethyl)-1H-imidazol-3-ium chloride]
C = C=CC[n+]1ccn(CCC#N)c1.[Cl-] [3-allyl-1-(2-cyanoethyl)-1H-imidazolium chloride]
D = N#CCCn1cc[n+](CCO)c1.[Cl-] [1-(2-cyanoethyl)-3-(2-hydroxyethyl)-1H-imidazolium chloride]
# rank by viscosity, ascending (min first) Use the labels to give the ranking in the order requested.
B, C, D, A
(B: 58 mPa·s, C: 171 mPa·s, D: 632 mPa·s, A: 1958 mPa·s)

* * *

settings: 348.15 K; 101.33 kPa; Liquid
measurement-kind: mass density (kg/m3)

Item under review: N#CCCn1cc[n+](Cc2ccccc2)c1.[Cl-] [1-(2-cyanoethyl)-3-(phenylmethyl)-1H-imidazolium chloride] . Reported mass density?
1174.01

Item: N#CCCn1cc[n+](CCO)c1.[Cl-] [1-(2-cyanoethyl)-3-(2-hydroxyethyl)-1H-imidazolium chloride]
1227.41

Item: C=CC[n+]1ccn(CCC#N)c1.[Cl-] [3-allyl-1-(2-cyanoethyl)-1H-imidazolium chloride]
1141.32

Item: CCCC[n+]1ccn(CCC#N)c1.[Cl-] [3-butyl-1-(2-cyanoethyl)-1H-imidazol-3-ium chloride]
1097.57

* * *

conditions: 333.15 K; 101.33 kPa; Liquid
measurement-kind: mass density (kg/m3)

Item under review: CCCC[n+]1ccn(CCC#N)c1.[Cl-] [3-butyl-1-(2-cyanoethyl)-1H-imidazol-3-ium chloride] . Reported mass density?
1107.03

Item: C=CC[n+]1ccn(CCC#N)c1.[Cl-] [3-allyl-1-(2-cyanoethyl)-1H-imidazolium chloride]
1150.01

Item: N#CCCn1cc[n+](CCO)c1.[Cl-] [1-(2-cyanoethyl)-3-(2-hydroxyethyl)-1H-imidazolium chloride]
1235.59

Item: N#CCCn1cc[n+](Cc2ccccc2)c1.[Cl-] [1-(2-cyanoethyl)-3-(phenylmethyl)-1H-imidazolium chloride]
1182.69

* * *

settings: 298.15 K; 101.33 kPa; Liquid
measurement-kind: mass density (kg/m3)

Item under review: N#CCCn1cc[n+](Cc2ccccc2)c1.[Cl-] [1-(2-cyanoethyl)-3-(phenylmethyl)-1H-imidazolium chloride] . Reported mass density?
1202.67

Item: CCCC[n+]1ccn(CCC#N)c1.[Cl-] [3-butyl-1-(2-cyanoethyl)-1H-imidazol-3-ium chloride]
1129.35

Item: C=CC[n+]1ccn(CCC#N)c1.[Cl-] [3-allyl-1-(2-cyanoethyl)-1H-imidazolium chloride]
1170.79

Item: N#CCCn1cc[n+](CCO)c1.[Cl-] [1-(2-cyanoethyl)-3-(2-hydroxyethyl)-1H-imidazolium chloride]
1255.05

* * *

conditions: 343.15 K; 101.33 kPa; Liquid
measurement-kind: viscosity (mPa·s)

Item under review: N#CCCn1cc[n+](CCO)c1.[Cl-] [1-(2-cyanoethyl)-3-(2-hydroxyethyl)-1H-imidazolium chloride] . Reported viscosity?
1245

1 = N#CCCn1cc[n+](Cc2ccccc2)c1.[Cl-] [1-(2-cyanoethyl)-3-(phenylmethyl)-1H-imidazolium chloride]
2 = CCCC[n+]1ccn(CCC#N)c1.[Cl-] [3-butyl-1-(2-cyanoethyl)-1H-imidazol-3-ium chloride]
3 = C=CC[n+]1ccn(CCC#N)c1.[Cl-] [3-allyl-1-(2-cyanoethyl)-1H-imidazolium chloride]
Order the 3 compounds from highest to lowest viscosity. Use the labels to give the ranking in the order requested.
1, 3, 2
(1: 5635 mPa·s, 3: 306 mPa·s, 2: 94 mPa·s)

* * *

details: 318.15 K; 101.33 kPa; Liquid
measurement-kind: mass density (kg/m3)

Item under review: N#CCCn1cc[n+](Cc2ccccc2)c1.[Cl-] [1-(2-cyanoethyl)-3-(phenylmethyl)-1H-imidazolium chloride] . Reported mass density?
1191.42

Item: CCCC[n+]1ccn(CCC#N)c1.[Cl-] [3-butyl-1-(2-cyanoethyl)-1H-imidazol-3-ium chloride]
1116.49

Item: C=CC[n+]1ccn(CCC#N)c1.[Cl-] [3-allyl-1-(2-cyanoethyl)-1H-imidazolium chloride]
1158.88

Item: N#CCCn1cc[n+](CCO)c1.[Cl-] [1-(2-cyanoethyl)-3-(2-hydroxyethyl)-1H-imidazolium chloride]
1243.81

* * *

settings: 338.15 K; 101.33 kPa; Liquid
measurement-kind: viscosity (mPa·s)

Example entries begin here.
Item under review: CCCC[n+]1ccn(CCC#N)c1.[Cl-] [3-butyl-1-(2-cyanoethyl)-1H-imidazol-3-ium chloride] . Reported viscosity?
123

Item: N#CCCn1cc[n+](Cc2ccccc2)c1.[Cl-] [1-(2-cyanoethyl)-3-(phenylmethyl)-1H-imidazolium chloride]
10434

a = N#CCCn1cc[n+](CCO)c1.[Cl-] [1-(2-cyanoethyl)-3-(2-hydroxyethyl)-1H-imidazolium chloride]
b = C=CC[n+]1ccn(CCC#N)c1.[Cl-] [3-allyl-1-(2-cyanoethyl)-1H-imidazolium chloride]
Consider entries a and b . Which has the numerically lower viscosity? Reply with the label of the item you choose.
b
(b: 423 mPa·s, a: 1817 mPa·s)

* * *

conditions: 303.15 K; 101.33 kPa; Liquid
measurement-kind: mass density (kg/m3)

Item under review: N#CCCn1cc[n+](Cc2ccccc2)c1.[Cl-] [1-(2-cyanoethyl)-3-(phenylmethyl)-1H-imidazolium chloride] . Reported mass density?
1200.28

Item: CCCC[n+]1ccn(CCC#N)c1.[Cl-] [3-butyl-1-(2-cyanoethyl)-1H-imidazol-3-ium chloride]
1126.15

Item: C=CC[n+]1ccn(CCC#N)c1.[Cl-] [3-allyl-1-(2-cyanoethyl)-1H-imidazolium chloride]
1167.79

Item: N#CCCn1cc[n+](CCO)c1.[Cl-] [1-(2-cyanoethyl)-3-(2-hydroxyethyl)-1H-imidazolium chloride]
1252.2

* * *

details: 348.15 K; 101.33 kPa; Liquid
measurement-kind: viscosity (mPa·s)

Item under review: CCCC[n+]1ccn(CCC#N)c1.[Cl-] [3-butyl-1-(2-cyanoethyl)-1H-imidazol-3-ium chloride] . Reported viscosity?
73

Item: N#CCCn1cc[n+](CCO)c1.[Cl-] [1-(2-cyanoethyl)-3-(2-hydroxyethyl)-1H-imidazolium chloride]
873

1 = C=CC[n+]1ccn(CCC#N)c1.[Cl-] [3-allyl-1-(2-cyanoethyl)-1H-imidazolium chloride]
2 = N#CCCn1cc[n+](Cc2ccccc2)c1.[Cl-] [1-(2-cyanoethyl)-3-(phenylmethyl)-1H-imidazolium chloride]
Kindly identify which of 1 and 2 has the larger recorded viscosity value. Reply with the label of the item you choose.
2
(2: 3190 mPa·s, 1: 226 mPa·s)

* * *

conditions: Glass; DTA
measurement-kind: Glass transition temperature (°C)

Item under review: N#CCCn1cc[n+](Cc2ccccc2)c1.[Cl-] [1-(2-cyanoethyl)-3-(phenylmethyl)-1H-imidazolium chloride] . Reported Glass transition temperature?
16.21

1 = C=CC[n+]1ccn(CCC#N)c1.[Cl-] [3-allyl-1-(2-cyanoethyl)-1H-imidazolium chloride]
2 = N#CCCn1cc[n+](CCO)c1.[Cl-] [1-(2-cyanoethyl)-3-(2-hydroxyethyl)-1H-imidazolium chloride]
3 = CCCC[n+]1ccn(CCC#N)c1.[Cl-] [3-butyl-1-(2-cyanoethyl)-1H-imidazol-3-ium chloride]
Could you please order the items by Glass transition temperature, going from the lowest number to the highest? Use the labels to give the ranking in the order requested.
3, 1, 2

* * *

settings: 313.15 K; 101.33 kPa; Liquid
measurement-kind: mass density (kg/m3)

Item under review: CCCC[n+]1ccn(CCC#N)c1.[Cl-] [3-butyl-1-(2-cyanoethyl)-1H-imidazol-3-ium chloride] . Reported mass density?
1119.66

Item: N#CCCn1cc[n+](Cc2ccccc2)c1.[Cl-] [1-(2-cyanoethyl)-3-(phenylmethyl)-1H-imidazolium chloride]
1194.37

Item: N#CCCn1cc[n+](CCO)c1.[Cl-] [1-(2-cyanoethyl)-3-(2-hydroxyethyl)-1H-imidazolium chloride]
1246.58

Item: C=CC[n+]1ccn(CCC#N)c1.[Cl-] [3-allyl-1-(2-cyanoethyl)-1H-imidazolium chloride]
1161.84

* * *

conditions: 323.15 K; 101.33 kPa; Liquid
measurement-kind: mass density (kg/m3)

Item under review: N#CCCn1cc[n+](Cc2ccccc2)c1.[Cl-] [1-(2-cyanoethyl)-3-(phenylmethyl)-1H-imidazolium chloride] . Reported mass density?
1188.5

Item: CCCC[n+]1ccn(CCC#N)c1.[Cl-] [3-butyl-1-(2-cyanoethyl)-1H-imidazol-3-ium chloride]
1113.34

Item: N#CCCn1cc[n+](CCO)c1.[Cl-] [1-(2-cyanoethyl)-3-(2-hydroxyethyl)-1H-imidazolium chloride]
1241.05

Item: C=CC[n+]1ccn(CCC#N)c1.[Cl-] [3-allyl-1-(2-cyanoethyl)-1H-imidazolium chloride]
1155.93

* * *

conditions: 333.15 K; 101.33 kPa; Liquid
measurement-kind: viscosity (mPa·s)

Item under review: C=CC[n+]1ccn(CCC#N)c1.[Cl-] [3-allyl-1-(2-cyanoethyl)-1H-imidazolium chloride] . Reported viscosity?
599

1 = N#CCCn1cc[n+](Cc2ccccc2)c1.[Cl-] [1-(2-cyanoethyl)-3-(phenylmethyl)-1H-imidazolium chloride]
2 = CCCC[n+]1ccn(CCC#N)c1.[Cl-] [3-butyl-1-(2-cyanoethyl)-1H-imidazol-3-ium chloride]
3 = N#CCCn1cc[n+](CCO)c1.[Cl-] [1-(2-cyanoethyl)-3-(2-hydroxyethyl)-1H-imidazolium chloride]
Order the 3 compounds from highest to lowest viscosity. Use the labels to give the ranking in the order requested.
1, 3, 2
(1: 20463 mPa·s, 3: 2708 mPa·s, 2: 164 mPa·s)
